Data origin: ChEMBL document CHEMBL5604063

TARGET SYSTEM: Genome polyprotein (dengue virus type 2, UniProt P29990)
Sequence (P29990 1346-1475 limits assumed): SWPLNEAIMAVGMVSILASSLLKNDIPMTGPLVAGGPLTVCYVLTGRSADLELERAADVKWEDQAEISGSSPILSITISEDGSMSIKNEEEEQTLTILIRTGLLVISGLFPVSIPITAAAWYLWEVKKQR
Sequence (P29990 1476-2093 limits assumed): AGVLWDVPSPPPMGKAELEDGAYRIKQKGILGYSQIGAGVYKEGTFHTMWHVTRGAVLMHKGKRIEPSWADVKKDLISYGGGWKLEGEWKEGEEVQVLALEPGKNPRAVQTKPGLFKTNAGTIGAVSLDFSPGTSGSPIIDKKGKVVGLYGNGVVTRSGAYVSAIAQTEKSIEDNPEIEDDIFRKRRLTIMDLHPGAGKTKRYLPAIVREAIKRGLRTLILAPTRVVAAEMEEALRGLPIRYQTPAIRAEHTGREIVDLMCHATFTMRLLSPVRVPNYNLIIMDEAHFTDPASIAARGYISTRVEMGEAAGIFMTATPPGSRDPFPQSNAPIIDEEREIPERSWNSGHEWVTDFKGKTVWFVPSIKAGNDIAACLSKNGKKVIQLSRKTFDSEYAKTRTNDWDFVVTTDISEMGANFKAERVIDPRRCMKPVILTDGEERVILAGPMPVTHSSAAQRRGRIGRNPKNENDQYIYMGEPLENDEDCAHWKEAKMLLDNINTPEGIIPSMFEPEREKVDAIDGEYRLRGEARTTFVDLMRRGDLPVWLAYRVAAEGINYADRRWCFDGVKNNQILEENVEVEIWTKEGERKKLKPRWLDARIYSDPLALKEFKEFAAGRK
Type: functional, Thailand/16681/1984
pIC50: −log10 of the molar value.
Let's look at some compounds and their measured pIC50.

In the examples that follow, each entry is paired with its recorded pIC50.
O=C(Nc1ccc(-n2nn[nH]c2=O)cc1)c1cc(Cl)cc(C2CC2)c1 : 4.21
Cc1c(C(=O)Nc2cc(CCCN)ccn2)cnn1C1CC1 : < 4.00
c1cncc(-c2cc(CN3CCC(c4cscn4)CC3)n[nH]2)c1 : < 4.00
N[C@H](CO)c1cccc(NC(=O)c2cc(Cl)cc(NC(=O)OCc3ccccc3)c2)c1 : < 4.00
NCc1cccc([C@@H]2C[C@H]2c2cc(Cl)cc(NC(=O)OCc3ccccc3)c2)c1 : < 4.00
N#Cc1cc(C(=O)Nc2ccc3c(c2)CNC3)cc(C(F)(F)F)c1 : < 4.00

## Task // lookup pIC50 | system=Genome polyprotein (dengue virus type 2, UniProt P29990) | key= Cc1c(C(=O)Nc2cc(-c3cccnc3)ccn2)cc(C(C)C)n1C
## Result < 4.00

## Task Continue with N#C[C@H](Nc1cc(Cl)cc(C2CC2)c1)c1ccc(-c2nn[nH]n2)cc1
## Result 4.75

## Task Please answer likewise for NCc1cccc(NC(=O)c2cc(Cl)cc3c2OCC3)c1
## Result < 4.00

## Task Please give the result for CC(C)CCN1Cc2ccc(NC(=O)c3cc(Cl)cc4[nH]ncc34)cc2C1 too.
## Result < 4.00

----------
Let's look at some molecules and their measured IC50.
TARGET SYSTEM: Genome polyprotein (dengue virus type 2, UniProt P29990)
Type: functional, Thailand/16681/1984

## Task IC50 lookup needed for FC(F)(F)c1nnc(COc2cncnc2)s1 , thanks.
## Result > 99.5 µM

----------
TARGET SYSTEM: Genome polyprotein (dengue virus type 2)
Assay type: functional, Thailand/16681/1984
The compounds listed here are annotated with their IC50.

Guide cases for IC50, answers given:
O=C(Nc1cc(Cl)cc(C(=O)Nc2ccc(CC3CCNCC3)cc2)c1)OCc1ccccc1 : 33.3 µM
CN1CC=C(c2cccc([C@@H](NC(=O)OCc3ccccc3)C(=O)Nc3cccc(CN)c3)c2)CC1 : > 100 µM
O=C(Nc1ccc2c(c1)CNC2)c1cc(Cl)cc(N2CCCC2)c1 : > 100 µM
O=C(Cn1ccnc(N2CC[C@H](CO)C2)c1=O)NCc1ccsc1 : > 100 µM
CC(C)(C)OC(=O)NCc1cc(NC(=O)c2cc(Cl)cc(NC(=O)OCc3ccccc3)c2)cc(-c2nn[nH]n2)c1 : 10.7 µM

## Task Which measured IC50 value corresponds to O=C(Nc1ccc2c(c1)CNC2)c1cc(F)cc2[nH]c(-c3ccccc3)nc12 ?
## Result 5.75 µM

## Task Then CC(C)(C)OC(=O)NCc1cc(Cl)cc(C(=O)O)c1 ?
## Result > 100 µM

----------
TARGET SYSTEM: Genome polyprotein (dengue virus type 2)
Format: functional, Thailand/16681/1984
In this section, each of the compounds is paired with its reported IC50.

Would you please look over these solved cases?
O=C(N[C@H](C(=O)NCc1cccc(CO)n1)c1ccc(OCc2ccccc2)cc1)OCc1ccccc1 : > 99.5 µM
NCc1cccc(NC(=O)[C@@H](NC(=O)OCc2ccccc2)c2ccc(OCc3cnccn3)cc2)c1 : > 99.5 µM
NCc1cccc(NC(=O)c2cc(Cl)cc(CN)c2)c1 : > 99.5 µM
COCCNC(=O)[C@H](Nc1cccc(-c2nn[nH]n2)c1)c1cc(Cl)cc(NC(=O)OCc2ccccc2)c1 : 59.8 µM
O=C(Nc1ccc2c(c1)CNC2)c1cc(F)cc(-c2cccnc2)c1 : > 99.5 µM
O=C1C[C@H](c2cccc(-c3cc(F)cc(C(=O)Nc4ccc5c(c4)CNC5)c3)c2)N1 : > 99.5 µM
Cc1n[nH]c2cc(C(=O)N3CCC(C)(NC(=O)[C@H]4C[C@H](N(C)C)C4)CC3)ccc12 : > 99.5 µM
CC(=O)Nc1cc(Br)cc(C(=O)Nc2ccc3c(c2)CNC3)c1 : > 99.5 µM
N[C@H]1Cc2ccc(NC(=O)c3cccc4c3CC(=O)N4)cc2C1 : 20.5 µM

Now for the compound whose IC50 we want.
## Task Field request: IC50 | item: O=C(NCC1CC1)c1cc(Cl)ccc1NS(=O)(=O)c1ccc(Oc2ccccc2Cl)cc1
## Result 22 µM

----------
TARGET SYSTEM: Genome polyprotein (dengue virus type 2)
Format: functional, Thailand/16681/1984
PROPERTY LABEL: IC50

CS(=O)(=O)c1cc(CN)cc(NC(=O)c2cc(Cl)cc(NC(=O)OCc3ccccc3)c2)c1 : > 100 µM
O=C(Nc1cc(Cl)cc(C(=O)Nc2ccc3c(c2)CCNC3)c1)OCc1ccccc1 : > 100 µM
O=C(Nc1ccc2c(c1)CNC2)c1cc(F)cc2[nH]c(CC[C@H]3CCCOC3)nc12 : > 100 µM
NS(=O)(=O)c1cc(F)cc(C(=O)Nc2ccc3c(c2)CNC3)c1 : > 100 µM
CN1CCC[C@H]1COc1ccc([C@@H](NC(=O)OCc2ccccc2)C(=O)Nc2cccc(CN)c2)cc1 : > 100 µM
O=C(Nc1cc(Cl)cc(C(=O)Nc2cccc(-c3cc[nH]n3)c2)c1)OCc1ccccc1 : > 100 µM

## Task Recorded IC50 for NCc1cccc(NC(=O)c2cc(C3CC3)nc3c(Cl)cnn23)c1 , please?
## Result > 100 µM

## Task Again, but for N#Cc1cc(-c2ccc3[nH]c(C(=O)O)cc3c2)cc(N2CCCC2)c1
## Result > 100 µM

## Task Repeat with Brc1cnc(Sc2ncc[nH]2)nc1
## Result > 100 µM

## Task Next up: NCc1cccc(CCc2cc(Cl)cc(NC(=O)OCc3ccccc3)c2)c1
## Result > 100 µM

----------
molecules and their reported IC50
TARGET SYSTEM: Genome polyprotein (dengue virus type 2, UniProt P29990)
Format: functional, Thailand/16681/1984

Answered cases to consult:
NCCc1cccc(NC(=O)c2cc(Cl)cc3[nH]ncc23)c1 : > 100 µM
Cc1c(C(=O)Nc2cc(C(=O)N(C)[C@H]3C[C@H](O)C3)ccn2)cc(C2CC2)n1C : > 100 µM
O=C1Cc2c(cc(Br)cc2C(=O)Nc2ccc3c(c2)C(=O)OC3)N1 : > 100 µM

Proceed to the following item.
## Task Item CNCCS(=O)(=O)N1CCC([C@H](NC(=O)OCc2ccccc2)C(=O)Nc2cccc(CN)c2)CC1 has what recorded IC50?
## Result > 100 µM

----------
TARGET SYSTEM: Genome polyprotein (dengue virus type 2, UniProt P29990)
Format: functional, Thailand/16681/1984
PROPERTY LABEL: IC50

Sample answers from the record:
Cn1nc(CCN)nc1NC(=O)c1cc(Cl)cc(NC(=O)OCc2ccccc2)c1 : > 99.5 µM
COC1CCN(C(=O)c2ccnc(NC(=O)c3cc(C4CC4)n(C)c3C)c2)CC1 : > 99.5 µM
O=C(Nc1cc(-c2cccnc2)ccn1)c1cc(C2CC2)[nH]n1 : > 99.5 µM
O=C(Nc1cc(Cl)cc(C(=O)NCCc2nnn[nH]2)c1)OCc1ccccc1 : > 99.5 µM

## Task // map Cc1cc(CNC(=O)[C@@H](NC(=O)OCc2ccccc2)c2ccc(OCc3ccccc3)cc2)cc(C)n1 to recorded IC50 (system: Genome polyprotein (dengue virus type 2, UniProt P29990))
## Result > 99.5 µM

----------
TARGET SYSTEM: UniProt P29990
Assay type: functional, Thailand/16681/1984
pIC50: −log10 of the molar value.
PROPERTY LABEL: pIC50

## Task Please give the measured pIC50 for this compound: CC(C)NC(=O)[C@H](Nc1ccc2c(c1)CNC2)c1cccc2cn[nH]c12
## Result < 4.00

## Task Can you check Cn1nc(CNc2ccc3c(c2)CNC3)cc1C1CC1 next?
## Result < 4.00

## Task Field entry: NCc1ccc(Oc2ccc(S(=O)(=O)Nc3ccc(Cl)cc3C(=O)NCC(F)(F)F)cc2)cc1
## Result < 4.00

## Task Also NCc1cccc(NC(=O)[C@@H](NC(=O)OCc2ccccc2)c2cccc(-c3cncnc3)c2)c1 ?
## Result < 4.00

## Task Another compound to look at: CC(C)n1cc(C(=O)Nc2cc(-c3cccnc3)ccn2)cn1
## Result < 4.00

## Task Here is the next compound: O=C(NCC(F)F)[C@H](Nc1ccc2c(c1)CNC2)c1cc(Cl)cc2[nH]ncc12
## Result < 4.00

## Task How about CC1(NS(=O)(=O)c2ccc(Cl)cc2C(=O)O)CCN(c2ccccc2)CC1 ?
## Result < 4.00

## Task Quick one: COc1cc(NC(=O)OCc2ccccc2)cc(C(=O)Nc2cccc(CN)c2)c1
## Result < 4.00

## Task Proceed to O=C(Nc1ccc2c(c1)COC2)c1cc(Cl)cc2[nH]ncc12
## Result < 4.00

## Task Further, for Cc1ncc(COc2ccc([C@H](NC(=O)OCc3ccccc3)C(=O)Nc3cccc(CN)c3)cc2)cn1 ?
## Result < 4.00

## Task Repeat with CN1CCc2c(cccc2NC(=O)c2cc(Cl)cc(NC(=O)OCc3ccccc3)c2)C1
## Result < 4.00

## Task Then this compound: O=C(Nc1ccc2c(c1)CNC2)c1cc(Cl)cc2cn[nH]c12
## Result < 4.00

## Task Now consider O=C(Nc1ccc2c(c1)CNC2)c1cc(Cl)cc2[nH]c(-c3c[nH]c(=O)c(Br)c3)nc12 and answer again.
## Result 4.90

## Task Follow-up entry: CCn1cc(C(=O)NC)nc(N2CC[C@@H](CO)C2)c1=O
## Result < 4.00

## Task Continue with O=C(Nc1ccc2c(c1)CN(CC(F)F)C2)c1cc(Cl)cc2[nH]ncc12
## Result 4.23

## Task Let us now turn to O=C(Nc1ccc2c(c1)CNC2)c1cc(Cl)cc2ccncc12
## Result < 4.00

## Task Now consider O=C(O)c1cc(Cl)ccc1NS(=O)(=O)c1ccc(NC2CCNCC2)nc1 .
## Result < 4.00

## Task Moving on to the next compound: CNC(=O)c1cc(OC)ccc1NS(=O)(=O)c1ccc(Oc2ccccc2Cl)cc1
## Result < 4.00
